Quick reference for pEC50 among some compounds
Tested on: HCV genotype 1b (Con1) replicon in HUH-7 cells
Test: HCV replicon luciferase reporter assay, genotype 1b
Type: cell-based
Conditions: Hepatitis C virus, 72 h, genotype 1b replicon, 3 days incubation, read-out: LE_1b (EC50, range)
pEC50: −log10 of the molar value.

sample_smiles=CC[C@@H]1O[C@H](C)CC/C=C\[C@@H]2C[C@@]2(C(=O)NS(=O)(=O)C2(CF)CC2)NC(=O)[C@@H]2C[C@@H](Oc3ncc(OC)c4ccccc34)CN2C(=O)[C@H]1NC(=O)OC(C)(C)C(F)(F)F property=pEC50 recorded_value="8.30 to 9.00"
sample_smiles=CC[C@@H]1O[C@H](C)CC/C=C\[C@@H]2C[C@@]2(C(=O)NS(=O)(=O)C2(C)CC2)NC(=O)[C@@H]2C[C@@H](Oc3nccc4c5c(ccc34)OCCO5)CN2C(=O)[C@H]1NC(=O)OC(C)(C)C(C)(F)F property=pEC50 recorded_value="9.00 to 9.29"
sample_smiles=CC[C@@H]1O[C@H](C)CC/C=C\[C@@H]2C[C@@]2(C(=O)NS(=O)(=O)C2(C)CC2)NC(=O)[C@@H]2C[C@@H](Oc3ncc(OC)c4ccc(F)cc34)CN2C(=O)[C@H]1NC(=O)OC(C)(C)C(F)F property=pEC50 recorded_value="9.00 to 9.29"
sample_smiles=CC[C@@H]1O[C@H](C)CC/C=C\[C@@H]2C[C@@]2(C(=O)NS(=O)(=O)C2(C)CC2)NC(=O)[C@@H]2C[C@@H](Oc3nc4c(c5cc(OC)ccc35)CCCO4)CN2C(=O)[C@H]1NC(=O)OC(C)(C)C(F)(F)F property=pEC50 recorded_value="9.30 to 10.00"
sample_smiles=CC[C@@H]1O[C@H](C)CC/C=C\[C@@H]2C[C@@]2(C(=O)NS(=O)(=O)C2(C)CC2)NC(=O)[C@@H]2C[C@@H](Oc3nc4c(c5ccccc35)CCCO4)CN2C(=O)[C@H]1NC(=O)OC(C)(C)C(C)(F)F property=pEC50 recorded_value="9.30 to 10.00"
sample_smiles=C[C@@H]1CC/C=C\[C@@H]2C[C@@]2(C(=O)NS(=O)(=O)C2(C)CC2)NC(=O)[C@@H]2C[C@@H](Oc3nc4c(c5ccccc35)CCCO4)CN2C(=O)[C@@H](NC(=O)OC(C)(C)C(C)(F)F)[C@H](C)O1 property=pEC50 recorded_value="9.00 to 9.29"

Task: Please report the recorded pEC50 for "CC[C@@H]1O[C@H](C)CC/C=C\[C@@H]2C[C@@]2(C(=O)NS(=O)(=O)C2(C)CC2)NC(=O)[C@@H]2C[C@@H](Oc3nccc4c5c(ccc34)OCCO5)CN2C(=O)[C@H]1NC(=O)OC(C)(C)C" .
Output: 9.00 to 9.29

Task: Please report the recorded pEC50 for "CC[C@@H]1OCCC/C=C\[C@@H]2C[C@@]2(C(=O)NS(=O)(=O)C2(C)CC2)NC(=O)[C@@H]2C[C@@H](Oc3nccc4cc(OC)ccc34)CN2C(=O)[C@H]1NC(=O)OC(C)(C)C(F)(F)F" .
Output: 9.00 to 9.29

Task: Please report the recorded pEC50 for "CC[C@@H]1O[C@H](C)CC/C=C\[C@@H]2C[C@@]2(C(=O)NS(=O)(=O)C2(C)CC2)NC(=O)[C@@H]2C[C@@H](Oc3nc(-c4ccc(OC(C)C)cn4)cc4cc(OC)ccc34)CN2C(=O)[C@H]1NC(=O)OC(C)(C)C(F)(F)F" .
Output: 8.30 to 9.00

====

Test system: HCV genotype 1b (Con1) replicon in HUH-7 cells
Assay: HCV replicon luciferase reporter assay, genotype 1b
Type: cell-based
Conditions: Hepatitis C virus, 72 h, genotype 1b replicon, 3 days incubation, read-out: LE_1b (EC50, range)
From the text: An HCV replicon whole cell system was established as described by Lohmann V, Korner F, Koch J, Herian U, Theilmann L, Bartenschlager R., Science 285(5424):110-3 (1999) and modified to introduce a luciferase reporter, as first described by Krieger et al (Krieger N, Lohmann V, and Bartenschlager R, J. Virol. 75(10):4614-4624 (2001)). […]
Quick reference for EC50 among some compounds

compound="CC[C@@H]1O[C@H](C)CC/C=C\\[C@@H]2C[C@@]2(C(=O)NS(=O)(=O)C2(CF)CC2)NC(=O)[C@@H]2C[C@@H](Oc3nc(OC)cc4cc(OC)ccc34)CN2C(=O)[C@H]1NC(=O)OC(C)(C)C(F)(F)F [Compound 1013]" recorded_value="1.01 to 5 nM"
compound="CC[C@@H]1OCCC/C=C\\[C@@H]2C[C@@]2(C(=O)NS(=O)(=O)C2(C)CC2)NC(=O)[C@@H]2C[C@@H](Oc3nccc4cc(OC)c(F)cc34)CN2C(=O)[C@H]1NC(=O)OC(C)(C)C(F)(F)F [Compound 1009]" recorded_value="1.01 to 5 nM"
compound="CCOc1cc2ccnc(O[C@@H]3C[C@H]4C(=O)N[C@]5(C(=O)NS(=O)(=O)C6(C)CC6)C[C@H]5/C=C\\CC[C@@H](C)O[C@@H](CC)[C@H](NC(=O)OC(C)(C)C(C)(F)F)C(=O)N4C3)c2cc1F [Compound 2607]" recorded_value="0.1 to 0.5 nM"

Field: next compound
Task: Please provide the recorded EC50 for CC[C@@H]1O[C@H](C)CC/C=C\[C@@H]2C[C@@]2(C(=O)NS(=O)(=O)C2(C)CC2)NC(=O)[C@@H]2C[C@@H](Oc3nc(-c4ccc(OC(C)C)cn4)cc4cc(OC)ccc34)CN2C(=O)[C@H]1NC(=O)OC(C)(C)C(C)(F)F [Compound 2613] , tested on HCV genotype 1b (Con1) replicon in HUH-7 cells.
Output: 0.1 to 0.5 nM

====

System: HCV genotype 1b (Con1) replicon in HUH-7 cells
Experiment: HCV replicon luciferase reporter assay, genotype 1b
Type: cell-based
Conditions: Hepatitis C virus, 72 h, genotype 1b replicon, 3 days incubation, read-out: LE_1b (EC50, range)
Quick reference for EC50 among some compounds

compound="COc1cnc(O[C@@H]2C[C@H]3C(=O)N[C@]4(C(=O)NS(=O)(=O)C5(C)CC5)C[C@H]4/C=C\\CC[C@@H](C)O[C@@H](C)[C@H](NC(=O)OC(C)(C)C(C)(F)F)C(=O)N3C2)c2cc(F)ccc12 [Compound 2008]" recorded_value="0.1 to 0.5 nM"
compound="CC[C@@H]1O[C@H](C)CC/C=C\\[C@@H]2C[C@@]2(C(=O)NS(=O)(=O)C2(C)CC2)NC(=O)[C@@H]2C[C@@H](Oc3nccc4cc(OC)c(F)cc34)CN2C(=O)[C@H]1NC(=O)OC(C)(C)C(F)F [Compound 2616]" recorded_value="1.01 to 5 nM"
compound="CC[C@@H]1O[C@H](C)CC/C=C\\[C@@H]2C[C@@]2(C(=O)NS(=O)(=O)C2CC2)NC(=O)[C@@H]2C[C@@H](Oc3nccc4cc(OC)ccc34)CN2C(=O)[C@H]1NC(=O)OC(C)(C)C(F)(F)F [Compound 1007]" recorded_value="0.51 to 1 nM"

Task: Please report the recorded EC50 for COc1cc(F)cc2c(O[C@@H]3C[C@H]4C(=O)N[C@]5(C(=O)NS(=O)(=O)C6(CF)CC6)C[C@H]5/C=C\CC[C@@H](C)O[C@@H](C)[C@H](NC(=O)OC(C)(C)C(C)(F)F)C(=O)N4C3)nccc12 [Compound 2021] .
Output: 0.51 to 1 nM

====

Tested on: HCV genotype 1b (Con1) replicon in HUH-7 cells
Test: HCV replicon luciferase reporter assay, genotype 1b
Assay type: cell-based
Details: Hepatitis C virus, 72 h, genotype 1b replicon, 3 days incubation, read-out: LE_1b (EC50, range)
pEC50: −log10 of the molar value.
property: pEC50

Before answering, review these 6 worked examples.
sample_smiles=C[C@@H]1CC/C=C\[C@@H]2C[C@@]2(C(=O)NS(=O)(=O)C2(C)CC2)NC(=O)[C@@H]2C[C@@H](Oc3nccc4c5c(ccc34)OCCO5)CN2C(=O)[C@@H](NC(=O)OC(C)(C)C(F)(F)F)[C@H](C)O1 property=pEC50 recorded_value="9.00 to 9.29"
sample_smiles=COc1ccc2c(O[C@@H]3C[C@H]4C(=O)N[C@]5(C(=O)NS(=O)(=O)C6(C)CC6)C[C@H]5/C=C\CC[C@@H](C)O[C@@H](C)[C@H](NC(=O)OC(C)(C)C(F)(F)F)C(=O)N4C3)nccc2c1 property=pEC50 recorded_value="9.30 to 10.00"
sample_smiles=COc1ccc2c(O[C@@H]3C[C@H]4C(=O)N[C@]5(C(=O)NS(=O)(=O)C6CC6)C[C@H]5/C=C\CO[C@@H](C)C[C@@H](C)[C@H](NC(=O)OC(C)(C)C(F)(F)F)C(=O)N4C3)nccc2c1 property=pEC50 recorded_value="8.30 to 9.00"
sample_smiles=CC[C@@H]1O[C@H](C)CC/C=C\[C@@H]2C[C@@]2(C(=O)NS(=O)(=O)C2(C)CC2)NC(=O)[C@@H]2C[C@@H](Oc3ncc(OC)c4ccc(F)cc34)CN2C(=O)[C@H]1NC(=O)OC(C)(C)C(C)(F)F property=pEC50 recorded_value="9.30 to 10.00"
sample_smiles=CC[C@@H]1O[C@H](C)CC/C=C\[C@@H]2C[C@@]2(C(=O)NS(=O)(=O)C2(C)CC2)NC(=O)[C@@H]2C[C@@H](Oc3nc4cc(OC)ccc4nc3C(F)(F)F)CN2C(=O)[C@H]1NC(=O)OC(C)(C)C(C)(F)F property=pEC50 recorded_value="9.30 to 10.00"
sample_smiles=COc1cc(F)cc2c(O[C@@H]3C[C@H]4C(=O)N[C@]5(C(=O)NS(=O)(=O)C6(C)CC6)C[C@H]5/C=C\CC[C@@H](C)O[C@@H](C)[C@H](NC(=O)OC(C)(C)C(F)F)C(=O)N4C3)nccc12 property=pEC50 recorded_value="9.00 to 9.29"

Field: next molecule
Task: Please report the recorded pEC50 for "CC[C@@H]1O[C@H](C)CC/C=C\[C@@H]2C[C@@]2(C(=O)NS(=O)(=O)C2(C)CC2)NC(=O)[C@@H]2C[C@@H](Oc3nc4c(c5ccccc35)CCCO4)CN2C(=O)[C@H]1NC(=O)OC(C)(C)C(F)(F)F" .
Output: 9.30 to 10.00
